test system: DENV-3 replicon; assay: Luciferase reporter replicon-based screening, DENV-3; type: cell-based, DENV-3 (strain D3MY05-34640); conditions: Dengue virus, DENV3, Huh-7, 48 h, read-out: EC50 DENV-3, Huh7 cells stably expressing DENV-3 replicon, 48 h
For each record, write down the corresponding pEC50.
Answers are plain numbers, as −log10 of the molar value.

{"QUERY_SMILES": "C[C@@H](c1ccc(Cl)cc1)n1nnc2c1NC(=O)C[C@]21C(=O)N(CCCCN2CCCCC2)c2ccc(Cl)cc21", "pEC50": 7.11}
{"QUERY_SMILES": "COCCCN1C(=O)C[C@]2(C(=O)Nc3ccc(Cl)cc32)c2nnn([C@@H](C)c3ccc(Cl)cc3)c21", "pEC50": 6.04}
{"QUERY_SMILES": "C[C@@H](c1ccc(Cl)cc1)n1nnc2c1NC(=O)C[C@]21C(=O)N(Cc2ccncc2)c2ccc(Cl)cc21", "pEC50": 7.60}
{"QUERY_SMILES": "C[C@@H](c1ccc(Cl)cc1)n1nnc2c1NC(=O)C[C@]21C(=O)N(CCOC(=O)CCCCCCCNC(=O)CCCC[C@@H]2SC[C@@H]3NC(=O)N[C@@H]32)c2ccc(Cl)cc21", "pEC50": 7.77}

Please report pEC50 for every entry that follows.
1. C[C@@H](c1ccc(Cl)cc1)n1nnc2c1NC(=O)C[C@]21C(=O)N(Cc2ccc(Cl)nc2)c2ccc(Cl)cc21
2. C[C@@H](c1ccc(Cl)cc1)n1nnc2c1NC(=O)C[C@]21C(=O)N(Cc2ccc(Cl)c(F)c2)c2ccc(Cl)cc21
3. C[C@@H](c1ccc(Cl)cc1)n1nnc2c1NC(=O)C[C@]21C(=O)N(Cc2cc(C(C)(C)C)cc(C(C)(C)C)c2)c2ccc(Cl)cc21
4. C[C@@H](c1ccc(Cl)cc1)n1nnc2c1NC(=O)C[C@]21C(=O)N(Cc2ccc(Cl)cc2)c2ccc(Cl)cc21

Response:
1: 8.22; 2: 6.54; 3: 5.23; 4: 6.70

Please report pEC50 for every entry that follows.
1. CCN1C(=O)[C@]2(CC(=O)Nc3c2nnn3[C@@H](C)c2ccc(Cl)cc2)c2cc(Cl)ccc21
2. C[C@@H](c1ccc(Cl)cc1)n1nnc2c1NC(=O)C[C@]21C(=O)N(CCCCN(C)C)c2ccc(Cl)cc21

Response:
1. 8.22
2. 7.42

====

Test: in vivo
Type: in vivo, male SD rats
Details: male, SD, in vivo; po 20 mg/kg, rat plasma
Description: In Vivo PK Studies. The PK profiles of compound 15 were determined in male SD rats following intravenous (i.v.) and oral (p.o.) administration of 10 and 20 mg/kg, respectively. The formulations used for i.v. and p.o. were solution in DMSO: 20% HP-β-CD in saline = 1:9. […] Plasma concentrations of compound 15 were measured by API-4000/5500 LC-MS/MS with 8 point standard curve and 6 QCs. Pharmacokinetic parameters were calculated by a non-compartmental approach using WinNonLin software.
MEASUREMENT_NAME: Tmax (h)
Numbers only, in h.

The molecule identified as CC(C)CCN1C(=O)[C@]2(CC(=O)Nc3c2nnn3[C@@H](C)c2ccc(Cl)cc2)c2cc(Cl)ccc21 [Compound 15] registered its Tmax at 1

====

assay: in vivo; format: in vivo, male SD rats; settings: male, SD, rat, in vivo; po 20 mg/kg vs iv 10 mg/kg, rats; read-out: F (absolute oral bioavailability)
MEASUREMENT_NAME: bioavailability

The compound identified as CC(C)CCN1C(=O)[C@]2(CC(=O)Nc3c2nnn3[C@@H](C)c2ccc(Cl)cc2)c2cc(Cl)ccc21 registered its bioavailability at 30%

====

test system: DENV-3 replicon; assay: Luciferase reporter replicon-based screening, DENV-3; format: cell-based, DENV-3 (strain D3MY05-34640); conditions: Dengue virus, DENV3, Huh-7, 48 h, read-out: EC50 DENV-3, Huh7 cells stably expressing DENV-3 replicon, 48 h
pEC50: −log10 of the molar value.
Assign yes (1) whenever pEC50 does not fall below 7; assign no (0) whenever it does.

These recorded examples may help you get a feel for the data.
{"MOLECULE": "C[C@@H](c1ccc(Cl)cc1)n1nnc2c1NC(=O)C[C@]21C(=O)N(CCN2CCOCC2)c2ccc(Cl)cc21 [Compound 55]", "GROUP": "yes (1)"}
{"MOLECULE": "C[C@@H](c1ccc(Cl)cc1)n1nnc2c1NC(=O)C[C@]21C(=O)N(CC2CC2)c2ccc(Cl)cc21 [Compound 17]", "GROUP": "yes (1)"}
{"MOLECULE": "CC(C)CN1C(=O)[C@]2(CC(=O)Nc3c2nnn3[C@@H](C)c2ccc(Cl)cc2)c2cc(Cl)ccc21 [Compound 14]", "GROUP": "yes (1)"}

As a next step, examine the molecule that follows.
Request: Hello, I need to know if Cc1ccc(CN2C(=O)[C@]3(CC(=O)Nc4c3nnn4[C@@H](C)c3ccc(Cl)cc3)c3cc(Cl)ccc32)cn1 [Compound 37] has measured pEC50 not below 7. Thanks!
Response: yes (1)

====

test system: DENV-3 replicon; assay: Luciferase reporter replicon-based screening, DENV-3; assay type: cell-based, DENV-3 (strain D3MY05-34640); details: Dengue virus, DENV3, Huh-7, 48 h, read-out: EC50 DENV-3, Huh7 cells stably expressing DENV-3 replicon, 48 h
For each record, write down the corresponding pEC50.
Give bare numbers, as −log10 of the molar value.

// below: answered compounds
{"COMPOUND": "C[C@@H](c1ccc(Cl)cc1)n1nnc2c1NC(=O)C[C@]21C(=O)N(CCN2CCN(C)CC2)c2ccc(Cl)cc21 [Compound 59]", "pEC50": 7.52}
{"COMPOUND": "C[C@@H](c1ccc(Cl)cc1)n1nnc2c1NC(=O)C[C@]21C(=O)N(CCN(C)C)c2ccc(Cl)cc21 [Compound 57]", "pEC50": 8.70}
{"COMPOUND": "C[C@@H](c1ccc(Cl)cc1)n1nnc2c1NC(=O)C[C@]21C(=O)N(CCCCCCCCCCN(C)C)c2ccc(Cl)cc21 [Compound 70]", "pEC50": 7.01}

Please report pEC50 for every entry that follows.
1. CCCCCCN1C(=O)[C@]2(CC(=O)Nc3c2nnn3[C@@H](C)c2ccc(Cl)cc2)c2cc(Cl)ccc21 [Compound 11]
2. COc1cccc(CN2C(=O)[C@]3(CC(=O)Nc4c3nnn4[C@@H](C)c3ccc(Cl)cc3)c3cc(Cl)ccc32)c1 [Compound 29]

Response:
1. 6.85
2. 7.06

====

test system: DENV-3 replicon; assay: Luciferase reporter replicon-based screening, DENV-3; format: cell-based, DENV-3 (strain D3MY05-34640); conditions: Dengue virus, DENV3, Huh-7, 48 h, read-out: EC50 DENV-3, Huh7 cells stably expressing DENV-3 replicon, 48 h
MEASUREMENT_NAME: log10 EC50 (log10 of the value in µM)
For clarity, the numbers are log10 values of EC50 expressed in µM.

{"QUERY_SMILES": "C[C@@H](c1ccc(Cl)cc1)n1nnc2c1NC(=O)C[C@]21C(=O)N(CCC(C)(C)C)c2ccc(Cl)cc21", "log10 EC50": -1.09}
{"QUERY_SMILES": "CC(C)N1C(=O)[C@]2(CC(=O)N(C(C)C)c3c2nnn3[C@@H](C)c2ccc(Cl)cc2)c2cc(Cl)ccc21", "log10 EC50": 0.18}
{"QUERY_SMILES": "C[C@@H](c1ccc(Cl)cc1)n1nnc2c1NC(=O)C[C@]21C(=O)N(CCN2CCCC2)c2ccc(Cl)cc21", "log10 EC50": -2.22}
{"QUERY_SMILES": "CCCN1C(=O)[C@]2(CC(=O)Nc3c2nnn3[C@@H](C)c2ccc(Cl)cc2)c2cc(Cl)ccc21", "log10 EC50": -2.00}
{"QUERY_SMILES": "CNCCN1C(=O)[C@]2(CC(=O)Nc3c2nnn3[C@@H](C)c2ccc(Cl)cc2)c2cc(Cl)ccc21", "log10 EC50": -1.66}
{"QUERY_SMILES": "COc1cc(CN2C(=O)[C@]3(CC(=O)Nc4c3nnn4[C@@H](C)c3ccc(Cl)cc3)c3cc(Cl)ccc32)cc(OC)c1", "log10 EC50": -0.10}

Please report log10 EC50 for every entry that follows.
1. CC(C)CCN1C(=O)[C@]2(CC(=O)Nc3c2nnn3[C@@H](C)c2ccc(Cl)cc2)c2cc(Cl)ccc21
2. CC(C)N1C(=O)[C@]2(CC(=O)Nc3c2nnn3[C@@H](C)c2ccc(Cl)cc2)c2cc(Cl)ccc21
3. CC(C)N1C(=O)C[C@]2(C(=O)Nc3ccc(Cl)cc32)c2nnn([C@@H](C)c3ccc(Cl)cc3)c21
4. C[C@@H](c1ccc(Cl)cc1)n1nnc2c1NC(=O)C[C@]21C(=O)Nc2ccc(Cl)cc21
5. CCCCCCCCCCN1C(=O)[C@]2(CC(=O)Nc3c2nnn3[C@@H](C)c2ccc(Cl)cc2)c2cc(Cl)ccc21
6. CC#CCN1C(=O)[C@]2(CC(=O)Nc3c2nnn3[C@@H](C)c2ccc(Cl)cc2)c2cc(Cl)ccc21

Response:
[-1.46, -2.05, -0.51, -2.00, 0.08, -1.70]

Please report log10 EC50 for every entry that follows.
1. C[C@@H](c1ccc(Cl)cc1)n1nnc2c1NC(=O)C[C@]21C(=O)N(CCCBr)c2ccc(Cl)cc21
2. C[C@@H](c1ccc(Cl)cc1)n1nnc2c1NC(=O)C[C@]21C(=O)N(CCN(C)CCS(C)(=O)=O)c2ccc(Cl)cc21
3. CCCCN1C(=O)[C@]2(CC(=O)Nc3c2nnn3[C@@H](C)c2ccc(Cl)cc2)c2cc(Cl)ccc21
4. COC(=O)CN1C(=O)C[C@]2(C(=O)Nc3ccc(Cl)cc32)c2nnn([C@@H](C)c3ccc(Cl)cc3)c21
5. C[C@@H](c1ccc(Cl)cc1)n1nnc2c1NC(=O)C[C@]21C(=O)N(CCCCCCN(C)C)c2ccc(Cl)cc21
6. C[C@@H](c1ccc(Cl)cc1)n1nnc2c1NC(=O)C[C@]21C(=O)N(CCCN(C)C)c2ccc(Cl)cc21

Response:
1: -1.12; 2: -1.74; 3: -1.74; 4: 0.43; 5: -1.18; 6: -3.00

Please report log10 EC50 for every entry that follows.
1. C[C@@H](c1ccc(Cl)cc1)n1nnc2c1NC(=O)C[C@]21C(=O)N(Cc2ccccn2)c2ccc(Cl)cc21
2. C[C@@H](c1ccc(Cl)cc1)n1nnc2c1NC(=O)C[C@]21C(=O)N(CCN2CCC2)c2ccc(Cl)cc21
3. C[C@@H](c1ccc(Cl)cc1)n1nnc2c1NC(=O)C[C@]21C(=O)N(CCCCCCCCN(C)C)c2ccc(Cl)cc21

Response:
[-2.52, -2.15, -1.38]

Taken from patent US20230056205A1.
